The measurements presented in this section are drawn from ChEMBL document CHEMBL3880404.

# assayed-system: Tyrosine-protein kinase JAK2 (Homo sapiens, UniProt O60674)
# Sequence (O60674 whole entry): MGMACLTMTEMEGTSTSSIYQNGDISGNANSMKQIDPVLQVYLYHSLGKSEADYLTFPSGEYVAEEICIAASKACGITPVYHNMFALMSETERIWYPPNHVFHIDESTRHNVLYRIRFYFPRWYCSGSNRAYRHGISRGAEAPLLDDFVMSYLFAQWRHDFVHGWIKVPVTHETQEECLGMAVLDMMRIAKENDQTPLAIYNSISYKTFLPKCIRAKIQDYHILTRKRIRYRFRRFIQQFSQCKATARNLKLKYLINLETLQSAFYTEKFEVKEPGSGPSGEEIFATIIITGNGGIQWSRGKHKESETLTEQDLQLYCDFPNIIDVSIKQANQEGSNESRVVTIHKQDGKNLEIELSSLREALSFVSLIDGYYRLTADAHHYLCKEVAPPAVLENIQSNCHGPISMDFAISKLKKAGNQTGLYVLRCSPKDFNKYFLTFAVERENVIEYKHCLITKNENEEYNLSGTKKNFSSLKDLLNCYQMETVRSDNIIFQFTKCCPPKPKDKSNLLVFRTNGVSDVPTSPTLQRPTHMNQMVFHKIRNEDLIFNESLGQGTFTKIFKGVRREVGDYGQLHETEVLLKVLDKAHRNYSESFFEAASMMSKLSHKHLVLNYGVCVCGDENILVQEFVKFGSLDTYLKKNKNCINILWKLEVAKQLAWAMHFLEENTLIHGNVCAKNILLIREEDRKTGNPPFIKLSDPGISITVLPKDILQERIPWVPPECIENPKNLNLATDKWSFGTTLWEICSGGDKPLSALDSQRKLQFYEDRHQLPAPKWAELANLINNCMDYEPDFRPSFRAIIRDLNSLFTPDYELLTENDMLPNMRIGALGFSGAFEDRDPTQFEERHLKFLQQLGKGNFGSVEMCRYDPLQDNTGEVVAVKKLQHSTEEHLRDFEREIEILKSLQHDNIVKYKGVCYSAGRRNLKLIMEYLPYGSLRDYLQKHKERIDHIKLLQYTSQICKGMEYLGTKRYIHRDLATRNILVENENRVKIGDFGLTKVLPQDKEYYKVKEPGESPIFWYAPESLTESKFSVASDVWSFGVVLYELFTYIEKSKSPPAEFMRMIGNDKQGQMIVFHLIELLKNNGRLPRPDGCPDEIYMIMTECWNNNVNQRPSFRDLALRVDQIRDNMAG
experimental-endpoint: Ki

Memo: Cc1cc(Nc2cc(N3CC(F)(C4CC4)C3)nc(O[C@H]3CCN(C(=O)c4cc(Cl)ccc4F)C3)n2)n[nH]1 , reported Ki: < 100 nM

====

# assayed-system: Tyrosine-protein kinase JAK3 (Homo sapiens, UniProt P52333)
# Sequence (P52333 whole entry): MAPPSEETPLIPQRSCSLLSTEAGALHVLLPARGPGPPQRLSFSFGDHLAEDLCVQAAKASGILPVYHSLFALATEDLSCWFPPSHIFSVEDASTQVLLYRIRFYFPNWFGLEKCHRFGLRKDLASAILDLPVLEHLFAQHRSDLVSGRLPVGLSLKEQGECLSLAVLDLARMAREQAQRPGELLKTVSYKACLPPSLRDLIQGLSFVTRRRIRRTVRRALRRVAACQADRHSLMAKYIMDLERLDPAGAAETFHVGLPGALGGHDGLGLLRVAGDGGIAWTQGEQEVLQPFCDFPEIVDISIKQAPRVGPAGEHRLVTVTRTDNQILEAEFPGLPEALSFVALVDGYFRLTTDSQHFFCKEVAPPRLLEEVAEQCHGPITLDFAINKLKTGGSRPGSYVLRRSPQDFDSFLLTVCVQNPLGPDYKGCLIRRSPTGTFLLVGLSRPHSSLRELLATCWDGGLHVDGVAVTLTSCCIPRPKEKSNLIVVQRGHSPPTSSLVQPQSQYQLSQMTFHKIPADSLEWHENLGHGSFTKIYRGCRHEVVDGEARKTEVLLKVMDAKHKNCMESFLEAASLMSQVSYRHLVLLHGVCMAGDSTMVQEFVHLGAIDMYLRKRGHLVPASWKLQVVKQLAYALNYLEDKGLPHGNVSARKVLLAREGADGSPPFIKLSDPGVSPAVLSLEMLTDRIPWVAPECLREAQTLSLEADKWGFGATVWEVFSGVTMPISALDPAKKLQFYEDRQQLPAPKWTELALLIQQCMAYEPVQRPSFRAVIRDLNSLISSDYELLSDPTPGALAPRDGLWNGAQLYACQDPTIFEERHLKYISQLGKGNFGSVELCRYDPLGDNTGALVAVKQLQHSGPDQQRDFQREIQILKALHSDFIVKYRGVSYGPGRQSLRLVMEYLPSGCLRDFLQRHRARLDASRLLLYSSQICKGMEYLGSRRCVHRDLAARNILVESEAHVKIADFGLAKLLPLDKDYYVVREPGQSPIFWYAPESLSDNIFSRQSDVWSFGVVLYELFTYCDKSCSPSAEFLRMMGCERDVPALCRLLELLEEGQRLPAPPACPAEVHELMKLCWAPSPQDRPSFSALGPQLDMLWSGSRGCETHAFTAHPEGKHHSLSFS
# procedure-text: Inhibition of JAK3 (unknown origin) using poly(Glu)4Tyr substrate and [gamma-33P]-ATP incubated for 20 mins by Top-count assay
experimental-endpoint: Ki

The compound Cc1cc(Nc2cc(N3CC(F)(C4CC4)C3)nc(O[C@H]3CCN(C(=O)OC(C)(C)C)C3)n2)[nH]n1 showed Ki equal to < 500 nM

====

Would you kindly list Ki for each of these compounds?
# assayed-system: Aurora kinase A (Homo sapiens, UniProt O14965)
# Sequence (O14965 whole entry): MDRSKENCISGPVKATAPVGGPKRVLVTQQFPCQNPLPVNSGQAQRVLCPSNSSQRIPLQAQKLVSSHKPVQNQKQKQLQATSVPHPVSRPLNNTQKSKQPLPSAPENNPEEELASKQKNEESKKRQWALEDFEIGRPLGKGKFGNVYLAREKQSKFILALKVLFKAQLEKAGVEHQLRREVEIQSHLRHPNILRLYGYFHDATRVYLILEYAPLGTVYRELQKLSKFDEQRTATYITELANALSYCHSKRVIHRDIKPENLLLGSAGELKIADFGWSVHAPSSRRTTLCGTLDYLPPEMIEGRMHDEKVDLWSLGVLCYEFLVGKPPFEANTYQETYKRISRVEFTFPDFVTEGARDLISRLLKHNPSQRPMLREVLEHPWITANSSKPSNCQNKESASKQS

The compound Cc1cc(Nc2cc(N3CC(F)(C4CC4)C3)nc(O[C@H]3CCN(C(=O)c4cc(Cl)ccc4F)C3)n2)n[nH]1 [MK-6592] showed Ki equal to < 0.01 µM

Measured Ki of Cc1cc(Nc2cc(N3CC(F)(C4CC4)C3)nc(O[C@H]3CCN(C(=O)OC(C)(C)C)C3)n2)[nH]n1 : < 0.01 µM
